# Tested on: P. berghei liver stage (PbLuc)
# Set-up: species or system HepG2-A16-CD81; P. berghei luciferase sporozoite infection of hepatocytes, liver stage luminescence
# STUDY CONDITIONS: 48 h, inhibitor
MEASURED PROPERTY: PbLuc primary screen (10uM): inhibition % (n=1) (%)
Answers are plain numbers, in %.

Worked set:
COMPOUND	UNIT ABBREVIATION	VAL
Cc1ncc(CN2CCc3[nH]c4cc(C(C)(C)C)nn4c(=O)c3C2)n1C [DDD01058400]	%	-12.3
CCc1ccc(NC(=O)Nc2c(O)c3ccccc3oc2=O)cc1 [DDD01037337]	%	-11.4
Cc1ccc(CN2CCc3c([nH]c4cc(C5CC5)nn4c3=O)C2)s1 [DDD01058491]	%	44.3
COCCCC(=O)N1CC(=O)Nc2cc(Br)ccc21 [DDD01075689]	%	-20.4

For the 2 compounds below, give their PbLuc primary screen (10uM): inhibition % (n=1) values.
1. CCc1c(C)nn2c(=O)cc(C3CCN(C(=O)c4ccccn4)C3)[nH]c12 (stereo not shown) [DDD01056906]
2. Cc1nnsc1C(=O)N1CCCCC1c1cc2[nH]c(C)c(C)c(=O)n2n1 (stereo not shown) [DDD01059036]

1. 44.95
2. 19.3

* * *

# Test system: HepG2-A16-CD81 hepatocytes
# Parameters: Uninfected hepatocyte viability, CellTiter-Glo luminescence
# STUDY CONDITIONS: cytotoxicity primary screen, inhibitor
Answer each item with its documented HepG2 toxicity primary screen (10uM): inhibition % (n=1).
Give bare numbers, in %.

Worked set:
COMPOUND	TESTED SYSTEM	VAL
Cc1ncc(CN2CCc3[nH]c4cc(C(C)(C)C)nn4c(=O)c3C2)n1C [DDD01058400]	HepG2-A16-CD81 hepatocytes	8.62
COCC(=O)N1Cc2[nH]c3c(C)c(-c4cccs4)nn3c(=O)c2C1 [DDD01056747]	HepG2-A16-CD81 hepatocytes	-4.81
Cc1[nH]n(C2CCS(=O)(=O)C2)c(=O)c1Cc1ccccc1Cl (stereo not drawn) [DDD01026964]	HepG2-A16-CD81 hepatocytes	-45.665

For the 6 compounds below, give their HepG2 toxicity primary screen (10uM): inhibition % (n=1) values.
1. Cc1cccc(C2N3CCC4(CC3)c3[nH]c5ccccc5c3CCN24)n1 (stereo not drawn) [DDD01058402]
2. Cc1[nH]n(C2CCS(=O)(=O)C2)c(=O)c1Cc1ccccc1 (stereo not drawn) [DDD01026976]
3. Cc1[nH]n(C2CCS(=O)(=O)C2)c(=O)c1CCc1ccccc1 (stereo not drawn) [DDD01026977]
4. Cc1ncsc1C(=O)N1CCCCC1c1cc2[nH]c(C)c(C)c(=O)n2n1 (stereo not drawn) [DDD01059037]
5. Cc1ccccc1CN(C)C(=O)CCC1=NC(=C2N=CN=N2)NO1 [DDD01062116]
6. O=C(CNC(=O)N1CCc2c([nH]c3ccc(Cl)cc23)C1)N1CCOCC1 [DDD01035668]

1. 8.06
2. -44.6
3. -50.25
4. -8.94
5. -42.09
6. 8.32

* * *

# Tested on: P. berghei liver stage (PbLuc)
# Parameters: species or system HepG2-A16-CD81; P. berghei luciferase sporozoite infection of hepatocytes, liver stage luminescence
# STUDY CONDITIONS: 48 h, inhibitor
Values of PbLuc primary screen (10uM): inhibition % (n=1) greater than or equal to 20% map to Satisfied; values below map to Not satisfied.

Examples with answers:
MOLECULE	CAT
Cc1nc(N2CCCC2)ncc1-c1cc(=O)n2ncnc2[nH]1	Not satisfied
CCC(CO)N(Cc1cccnc1)C(=O)c1ccc(C(F)(F)F)[nH]c1=O (stereo not shown)	Not satisfied
Cc1[nH]n(C2CCCCC2)c2nc(C(C)(C)CN3CCOCC3)nc1-2	Not satisfied
CC(NC(=O)CCC1=NC(=C2N=CN=N2)NO1)c1ccc(F)cc1F (stereo not shown)	Satisfied
Cn1nc(C2CC2)c(-c2ccc3c(c2)OCO3)c1N	Not satisfied
CCc1c(C)nn2c(=O)cc(C3CCN(C(=O)C4CC4)C3)[nH]c12 (stereo not shown)	Satisfied
Cc1[nH]n(-c2ccc(F)cc2)c2nnc(N)c1-2	Satisfied
Cn1nc(C2CCC2)c(-c2ccc3c(c2)OCO3)c1N	Satisfied

Test whether the molecule CCc1c(C)nn2c(=O)cc(C3CCN(C(=O)c4ccn(C)n4)C3)[nH]c12 (stereo not shown) records PbLuc primary screen (10uM): inhibition % (n=1) of 20% or higher.
Not satisfied

Consider next the molecule CCc1c(C)[nH]c2cc(C3CCN(Cc4cccc(F)c4)C3)nn2c1=O (stereo not shown) in the same way.
Satisfied

* * *

# System: HepG2-A16-CD81 hepatocytes
# Parameters: Uninfected hepatocyte viability, CellTiter-Glo luminescence
# STUDY CONDITIONS: cytotoxicity primary screen, inhibitor
MEASURED PROPERTY: HepG2 toxicity primary screen (10uM): inhibition % (n=1) (%)
Numbers only, in %.

COMPOUND	UNIT ABBREVIATION	VAL
CCc1c(C)[nH]c2cc(C3CCN(Cc4ccccc4F)C3)nn2c1=O (stereo not drawn)	%	1.7

For the 2 compounds below, give their HepG2 toxicity primary screen (10uM): inhibition % (n=1) values.
1. COc1cc(F)ccc1-c1nc2c(C3CC3)[nH]n(C)c-2n1
2. CC(=O)N1CCCN(C(=O)CCOc2ccc(C(C)C)cc2)CC1

1. -1.72
2. -13

* * *

# Tested on: P. berghei liver stage (PbLuc)
# Design: species or system HepG2-A16-CD81; P. berghei luciferase sporozoite infection of hepatocytes, liver stage luminescence
# STUDY CONDITIONS: 48 h, inhibitor
Answer each item with its documented PbLuc primary screen (10uM): inhibition % (n=1).
One number for each entry, in %.

COMPOUND	VAL
Cn1cc(C(=O)N2CCCC(c3cc(=O)n(C)[nH]3)C2)cn1 (stereo not drawn)	19.6
Cc1[nH]c2cc(C3CCN(Cc4ccccc4F)C3)nn2c(=O)c1C (stereo not drawn)	61.7
CCn1[nH]cc2nc(-c3cc4c(cc3OC)OCO4)nc1-2	-7.2

For the 3 compounds below, give their PbLuc primary screen (10uM): inhibition % (n=1) values.
1. CCc1c(C)[nH]c2cc(C3CCN(Cc4cccnc4)C3)nn2c1=O (stereo not drawn)
2. CCc1c(C)[nH]c2cc(C3CCN(Cc4ccc(F)cc4)C3)nn2c1=O (stereo not drawn)
3. COc1cc(OC)c(-c2nc3c(C4CC4)[nH]n(C)c-3n2)cc1OC

1: -33.4; 2: 66.5; 3: 41.8
